Target: cyclooxygenase (Rattus norvegicus, UniProt Q63921)
Construct: host or cells: RBL-1 (rat basophilic leukemia) cells
Experiment: ARBC whole cell cyclooxygenase assay (RBL-1 cells, PGF2α formation by RIA)
Format: cell-based
Details: RBL-1 whole cells; @ 16 μM; read-out: ARBC % inhibition at the given micromolar concentration (PGF2α formation)
Measured endpoint: inhibition at 16 µM (%)

Use these answered entries as a reference point.
Lookup: Give cyclooxygenase (Rattus norvegicus, UniProt Q63921) inhibition at 16 µM for `CNC(=O)N(O)Cc1cccc(Nc2ccccc2C(=O)OC)c1C`
Found: 43

Lookup: Give cyclooxygenase (Rattus norvegicus, UniProt Q63921) inhibition at 16 µM for CCOC(=O)N(O)C(C)c1ccc(C)c(Nc2ccccc2C(=O)O)c1C (stereo not shown)
Found: 53

a = CNC(=O)N(O)Cc1cccc(Nc2ccccc2C(=O)O)c1C
b = CCOC(=O)N(O)Cc1ccc(Cl)c(Nc2ccccc2C(=O)O)c1Cl
Lookup: Two entries are listed, a and b . Which one carries the higher inhibition at 16 µM? Select an item and report its label.
Found: b
(b: 89%, a: 56%)

* * *

Target: cyclooxygenase (Rattus norvegicus)
Sequence (Q63921 27-602): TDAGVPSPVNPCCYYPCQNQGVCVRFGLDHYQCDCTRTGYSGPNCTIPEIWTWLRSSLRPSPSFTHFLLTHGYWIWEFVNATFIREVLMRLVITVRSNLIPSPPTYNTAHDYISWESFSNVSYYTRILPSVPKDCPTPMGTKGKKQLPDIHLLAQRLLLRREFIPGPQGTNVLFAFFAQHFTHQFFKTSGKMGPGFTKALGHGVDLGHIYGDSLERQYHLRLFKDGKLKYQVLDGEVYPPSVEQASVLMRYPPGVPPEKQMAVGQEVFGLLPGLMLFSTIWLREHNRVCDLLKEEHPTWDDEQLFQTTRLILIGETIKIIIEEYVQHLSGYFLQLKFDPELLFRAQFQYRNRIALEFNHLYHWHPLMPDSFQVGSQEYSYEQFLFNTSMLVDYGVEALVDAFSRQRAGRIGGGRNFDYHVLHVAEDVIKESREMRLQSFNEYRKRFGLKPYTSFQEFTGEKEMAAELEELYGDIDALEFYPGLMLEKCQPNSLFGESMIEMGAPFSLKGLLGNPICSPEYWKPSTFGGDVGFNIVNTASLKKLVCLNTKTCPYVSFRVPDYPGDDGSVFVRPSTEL
Assay: ARBC whole cell cyclooxygenase assay (RBL-1 cells, PGF2α formation by RIA)
Conditions: RBL-1 whole cells, A23187 5 μM; read-out: ARBC IC50 (50% inhibition of PGF2α formation)
pIC50: −log10 of the molar value.
Measured endpoint: pIC50

Use these answered entries as a reference point.
Lookup: Give cyclooxygenase (Rattus norvegicus) pIC50 for `COC(=O)c1ccccc1Nc1cccc(CN(O)C(C)=O)c1Cl`
Found: 5.37

Lookup: Give cyclooxygenase (Rattus norvegicus) pIC50 for `CCOC(=O)N(O)Cc1cccc(Nc2ccccc2C(=O)OC)c1C`
Found: 5.06

Lookup: Give cyclooxygenase (Rattus norvegicus) pIC50 for `CNC(=O)N(O)Cc1cccc(Nc2ccccc2C(=O)OC)c1Cl`
Found: 5.33

1 = COC(=O)c1ccccc1Nc1c(Cl)ccc(CN(O)C(C)=O)c1Cl
2 = CCOC(=O)N(O)Cc1cccc(Nc2ccccc2C(=O)OC)c1Cl
3 = CCOC(=O)N(O)Cc1ccc(Cl)c(Nc2ccccc2C(=O)OC)c1Cl
4 = CC(=O)N(O)Cc1cccc(Nc2ccccc2C(=O)O)c1C
5 = COC(=O)c1ccccc1Nc1cccc(CN(O)C(C)=O)c1C
Lookup: Your job: order these 5 records by pIC50, ascending. As an answer, provide the labels arranged in the order called for.
Found: 5, 1, 3, 4, 2

Where do the numbers come from? From patent US5017604A.
